- assayed.target: T1, natriuretic peptide receptor-B (human)
- T1 chain: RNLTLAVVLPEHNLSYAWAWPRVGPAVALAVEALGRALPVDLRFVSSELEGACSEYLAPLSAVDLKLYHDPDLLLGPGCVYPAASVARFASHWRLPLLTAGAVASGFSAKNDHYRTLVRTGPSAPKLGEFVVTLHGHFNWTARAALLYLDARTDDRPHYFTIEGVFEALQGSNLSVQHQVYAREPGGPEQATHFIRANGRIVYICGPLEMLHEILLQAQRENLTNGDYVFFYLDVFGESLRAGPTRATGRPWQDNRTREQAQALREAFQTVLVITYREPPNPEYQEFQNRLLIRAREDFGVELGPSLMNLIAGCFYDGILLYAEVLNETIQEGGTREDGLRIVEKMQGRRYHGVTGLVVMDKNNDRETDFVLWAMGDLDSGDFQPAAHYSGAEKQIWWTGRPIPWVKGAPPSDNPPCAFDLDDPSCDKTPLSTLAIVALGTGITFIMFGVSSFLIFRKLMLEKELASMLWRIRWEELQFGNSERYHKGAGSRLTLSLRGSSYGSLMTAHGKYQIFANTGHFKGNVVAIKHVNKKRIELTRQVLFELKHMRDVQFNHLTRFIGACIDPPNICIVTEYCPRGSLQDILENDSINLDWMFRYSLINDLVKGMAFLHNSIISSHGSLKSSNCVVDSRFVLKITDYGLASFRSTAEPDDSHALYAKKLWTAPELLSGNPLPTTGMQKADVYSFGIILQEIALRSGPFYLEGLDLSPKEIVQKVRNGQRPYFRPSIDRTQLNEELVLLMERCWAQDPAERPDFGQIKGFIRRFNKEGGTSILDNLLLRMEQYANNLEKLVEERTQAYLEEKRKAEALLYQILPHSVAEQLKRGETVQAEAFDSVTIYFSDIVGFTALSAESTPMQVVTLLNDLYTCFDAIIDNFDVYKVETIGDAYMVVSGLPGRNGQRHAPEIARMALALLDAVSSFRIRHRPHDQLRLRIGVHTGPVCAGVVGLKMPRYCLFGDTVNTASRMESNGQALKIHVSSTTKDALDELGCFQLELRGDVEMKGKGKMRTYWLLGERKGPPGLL
- assay.protocol: cell-based or functional assay
Square brackets hold non-standard residues; d marks the D form. Ends that are not written are not given here. * marks the point of attachment. Hyp = O=C(O)[C@@H]1C[C@@H](O)CN1; NMeL = CN[C@@H](CC(C)C)C(=O)O; AR‑201‑59 = not defined here; AR‑201‑73 = not defined here; Octanoyl = CCCCCCCC(=O)*
Reported EC50 group, cGMP in GTM-3 cells values follow for various binders
measurement.type: EC50 group, cGMP in GTM-3 cells

| binder | measurement.type | endpoint.value |
| --- | --- | --- |
| [AR‑201‑59]F[dR]L[Hyp][NMeL]DRI-NH2 (reading uncertain; also: printed as (AR-201-59)-Phe-arg-Leu-Hyp-Nml-Asp-Arg-Ile-NH2) [JAL-1340] | EC50 group, cGMP in GTM-3 cells | ≤ 15 µM |
| Octanoyl-[dA]F[dH]LPLDRI-NH2 [JAL-1032] | EC50 group, cGMP in GTM-3 cells | ≤ 5 µM |
| [AR‑201‑73]F[dL]L[Hyp][NMeL]DRI-NH2 (reading uncertain; also: printed as (AR-201-73)-Phe-leu-Leu-Hyp-Nml-Asp-Arg-Ile-NH2) [JAL-1378] | EC50 group, cGMP in GTM-3 cells | ≤ 5 µM |
